# Tested on: Mycobacteroides abscessus
# Assay procedure: Antimycobacterial activity against Mycobacterium abscessus ATCC 19977 assessed as reduction in bacterial cell growth incubated for 3 days by broth dilution method
# Assay type: functional
# Measurement conditions: ATCC 19977, 72 h
Measurement type: MIC

Worked examples follow.
- Molecule: "O=S(=NSC(F)(F)F)(c1ccccc1)c1ccccc1"
  Measurement type: "MIC"
  Result: "> 64 µg/mL"
- Molecule: "O=[N+]([O-])c1ccc(S(=O)(=NSC(F)(F)F)N2CCCCC2)cc1 (stereo not given)"
  Measurement type: "MIC"
  Result: "32 to 64 µg/mL"
- Molecule: "CCN(CC)S(=O)(=NSC(F)(F)F)c1ccc([N+](=O)[O-])cc1 (stereo not given)"
  Measurement type: "MIC"
  Result: "16 to 32 µg/mL"
- Molecule: "O=S(=NSC(F)(F)F)(c1ccccc1)N1CCCC1 (stereo not given)"
  Measurement type: "MIC"
  Result: "> 64 µg/mL"

Next molecule, MIC to be filled in.
Looking up Cc1ccc(S(=O)(=NSC(F)(F)F)N2CCOCC2)cc1 (stereo not given) , I see its MIC listed as 16 to 32 µg/mL
